Target: BAG3 full-length (Homo sapiens, UniProt O95817)
Construct: both the full-length BAG3 protein and its BAG domain; purchased Novus Biologicals (Littleton, CO, USA)
Sequence (O95817 whole entry, the tested form may be a part): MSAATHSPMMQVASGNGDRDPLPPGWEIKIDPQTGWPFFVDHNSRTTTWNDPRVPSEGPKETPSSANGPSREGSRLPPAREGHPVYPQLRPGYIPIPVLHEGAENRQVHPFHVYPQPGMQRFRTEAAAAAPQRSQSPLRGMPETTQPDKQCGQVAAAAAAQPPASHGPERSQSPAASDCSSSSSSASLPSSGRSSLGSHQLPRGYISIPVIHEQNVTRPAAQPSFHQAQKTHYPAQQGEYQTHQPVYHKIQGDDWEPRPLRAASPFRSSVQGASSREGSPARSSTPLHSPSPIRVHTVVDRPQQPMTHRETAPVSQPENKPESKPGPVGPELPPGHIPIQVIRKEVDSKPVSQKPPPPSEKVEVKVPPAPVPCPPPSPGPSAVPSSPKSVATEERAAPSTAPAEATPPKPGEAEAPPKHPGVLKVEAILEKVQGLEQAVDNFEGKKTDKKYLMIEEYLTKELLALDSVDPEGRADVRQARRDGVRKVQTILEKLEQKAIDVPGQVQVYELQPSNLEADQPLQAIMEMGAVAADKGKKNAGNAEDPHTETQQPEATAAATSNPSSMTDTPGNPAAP
Assay: SPR assay on BAG3 full-length protein
Conditions: Biacore T200, 0 to 100 µM, 25 °C, 1:1 interaction model, n.b. = no binding, read-out: BAG3 FULL KD (µM) ± SD
// reported Kd for each item listed
Unit µM implied. Number only.

Some molecules with recorded Kd:
molecule	Kd, µM
Clc1ccc2nc(-c3ccccc3Br)c(Nc3ccc4ccccc4c3)n2c1	20.7
COc1ccc(F)c(-c2nc3cc(C)ccn3c2NCc2ccccc2)c1	76.2
CCOC(=O)CN1C(=O)S/C(=C\c2ccc(O)c(O)c2)C1=O [LK4, reference compound]	19.9

The molecule CC(C)Nc1c(-c2ccccc2Br)nc2ccc(Cl)cn12 showed Kd equal to 33.5

====

Biological target: BAG3-BD (Homo sapiens)
Construct: the BAG3 domain (BAG3-BD) was procured from ARETA International S.r.l; purchased ARETA International S.r.l; (Gerenzano, Italy)
Sequence (O95817 421-498 limits assumed): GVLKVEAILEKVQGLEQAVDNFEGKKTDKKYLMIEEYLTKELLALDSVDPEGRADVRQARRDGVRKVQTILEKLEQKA
Assay: SPR assay on BAG domain of BAG3 (BAG3-BD)
Type: binding
Conditions: Biacore T200, 0 to 100 µM, 25 °C, 1:1 interaction model, read-out: BAG DOMAIN KD (µM) ± SD
endpointLabel: Kd (µM)
Unit µM implied. Number only.

compound	Kd [µM]
COc1ccc(F)c(-c2nc3cc(C)ccn3c2NCc2ccccc2)c1	16.9
CCOC(=O)CN1C(=O)S/C(=C\c2ccc(O)c(O)c2)C1=O [LK4, reference compound]	0.18
Clc1ccc2nc(-c3ccccc3Br)c(Nc3ccc4ccccc4c3)n2c1	14.7

Proceeding to the next compound to report its Kd.
The compound CC(C)Nc1c(-c2ccccc2Br)nc2ccc(Cl)cn12 showed Kd equal to 15.7

====

// reported pIC50 for each item listed
System: HeLa cells
Experiment: MTT cell viability assay on HeLa cells
Type: cell-based
Settings: Homo sapiens, 72 h, seven concentrations (1 to 100 µM)
Procedure: Elevated expression levels of BAG3 are strongly associated with signaling pathways in various types of malignant cells; consequently, reducing the activity of this co-chaperone inhibits cell proliferation, triggers apoptosis, and induces cell cycle arrest. […] Cell viability was assessed by measuring mitochondrial metabolic activity using a colorimetric assay, which involves the reduction of 3-[4,5-dimethylthiazol-2,5-diphenyl-2H-tetrazolium bromide (MTT) to purple formazan. […]
# reply with the number alone; pIC50 is -log10 of concentration in mol/L

entrySmiles	pIC50
CC(C)Nc1c(-c2ccccc2Br)nc2ccc(Cl)cn12	4.60

Proceeding to the next compound to report its pIC50.
Hey, HeLa cells data for Clc1ccc2nc(-c3ccccc3Br)c(Nc3ccc4ccccc4c3)n2c1 : pIC50 came out at 4.41

====

System: HaCat cells
Experiment: MTT cell viability assay on HaCat healthy cells
Format: cell-based
Conditions: Homo sapiens, 72 h, seven concentrations (1 to 100 μM)
endpointLabel: pIC50
# reply with the number alone; pIC50 is -log10 of concentration in mol/L

Hey, HaCat cells data for CC(C)Nc1c(-c2ccccc2Br)nc2ccc(Cl)cn12 [Compound 10] : pIC50 came out at 4.09

Data provenance: paper PMC11547576
